# System: SCP28 breast cancer cells
# ASSAY_COMMENT: Experimental bone metastasis: intracardiac SCP28 cells in nude mice, BLI, X-ray, histology
# Type: in vivo, mouse
# CONDITION_CONTEXT: pre-miRNA 10 μg/mouse i.v. before and once per week after SCP28 inoculation
MEASURED_PARAMETER: hind-limb tumor burden / metastatic progression by BLI

SUBSTANCE	RESULT
miR-190: miRNA, SEQ ID NO: 64; delivered as pre-miRNA precursor; targets Calcr (UGAUAUGUUUGAUAUAUUAGGU; delivered as pre-miRNA precursor, chemistry not given here; listed as Homo sapiens)	no effect
miR-133a: miRNA, SEQ ID NO: 61; delivered as pre-miRNA precursor; targets Mitf and Mmp14 (UUUGGUCCCCUUCAACCAGCUA; delivered as pre-miRNA precursor, chemistry not given here; listed as Homo sapiens)	no effect
